# System: LN18
# test_details: MTT assay panel
# Type: cell-based
# condition_description: Homo sapiens, LN-18; LN18 cells, 72 hours
recorded_endpoint: IC50 (nM)
Give bare numbers, in nM.

# input # query: IC50 of entry `NC(=O)/C(=C/n1cnc(-c2cc(C(F)(F)F)cc(C(F)(F)F)c2)n1)c1cncnc1`
# output 2060

----------
# Tested on: NCI-H69
# test_details: MTT assay panel
# Type: cell-based
# condition_description: Homo sapiens; NCI-H69 cells, 72 hours
recorded_endpoint: IC50
Could you give the number and then its unit, please?

# input GET /values?readout=IC50&system=NCI-H69&item= `NC(=O)/C(=C/n1cnc(-c2cc(C(F)(F)F)cc(C(F)(F)F)c2)n1)c1cncnc1`
# output 1640 nM
